# tgt: DLL4 (human, UniProt Q9NR61)
# Sequence (Q9NR61 27-524): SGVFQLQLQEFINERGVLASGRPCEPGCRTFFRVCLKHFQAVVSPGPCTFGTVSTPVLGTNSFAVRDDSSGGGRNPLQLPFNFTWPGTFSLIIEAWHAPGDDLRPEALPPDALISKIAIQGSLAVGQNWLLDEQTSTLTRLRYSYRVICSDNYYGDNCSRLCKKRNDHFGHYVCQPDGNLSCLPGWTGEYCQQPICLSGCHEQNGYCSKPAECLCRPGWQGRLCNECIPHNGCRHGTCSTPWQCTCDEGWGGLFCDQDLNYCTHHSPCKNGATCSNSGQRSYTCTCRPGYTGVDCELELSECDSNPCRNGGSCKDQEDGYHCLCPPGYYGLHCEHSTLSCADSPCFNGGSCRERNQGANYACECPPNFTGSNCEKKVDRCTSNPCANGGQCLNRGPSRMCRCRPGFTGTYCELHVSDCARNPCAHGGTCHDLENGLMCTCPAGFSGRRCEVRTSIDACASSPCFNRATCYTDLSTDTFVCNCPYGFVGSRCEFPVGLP
# method-notes: ELISA
Item-by-item account of pEC50
pEC50 here: minus log base 10 of the concentration, concentration in moles per litre.

binder	pEC50
DVD483 DLL4 arm (antibody, DVD-Ig outer) chain 1: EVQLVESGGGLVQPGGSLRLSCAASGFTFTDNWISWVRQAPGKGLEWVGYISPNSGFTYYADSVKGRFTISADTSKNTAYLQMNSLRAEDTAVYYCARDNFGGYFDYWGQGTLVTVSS chain 2: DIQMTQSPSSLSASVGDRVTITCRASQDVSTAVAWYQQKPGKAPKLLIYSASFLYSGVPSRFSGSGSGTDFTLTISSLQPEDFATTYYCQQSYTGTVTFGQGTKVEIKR	9.20
DVD500 DLL4 arm (antibody, V domains shown, DVD-Ig inner) VH: EVQLQQSGPELVKPGASVKMSCKASGYTFTSYVINWVKQKPGQGLEWIGLINPYNDGTKYNEKFKVKATLTSDKSSSTAYMELSSLTSEDSAVYYCASYYYGSRYYFDYWGQGTTLTVSS VL: DIQMTQSSSYLSVSLGGRVTITCKASDHINNWLAWYQQKPGNAPRLLISGATSLETGVPSRFSGSGSGKDYTLSITSLQTEDVATYYCQQYWSIPLTFGAGTKLELKR	9.24
DVD519 DLL4 arm (antibody, V domains shown, DVD-Ig outer) VH: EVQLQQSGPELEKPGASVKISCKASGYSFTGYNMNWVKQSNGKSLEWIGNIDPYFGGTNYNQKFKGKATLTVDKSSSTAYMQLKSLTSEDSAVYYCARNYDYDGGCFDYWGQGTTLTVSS VL: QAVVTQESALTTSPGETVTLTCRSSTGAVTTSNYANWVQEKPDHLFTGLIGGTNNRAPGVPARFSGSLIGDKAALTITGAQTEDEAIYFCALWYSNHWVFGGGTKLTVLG	8.82
DVD442 DLL4 arm (antibody, V domains shown, DVD-Ig inner) VH: QVQLVQSGAEVKKPGASVKISCKASGYSFTAYYIHWVKQAPGQGLEWIGYISSYNGATNYNQKFKGRVTFTTDTSTSTAYMELRSLRSDDTAVYYCARDYDYDVGMDYWGQGTLVTVSS VL: DIVMTQSPDSLAVSLGERATISCRASESVDNYGISFMKWFQQKPGQPPKLLIYAASNQGSGVPDRFSGSGSGTDFTLTISSLQAEDVAVYYCQQSKEVPWTFGGGTKVEIKR	7.98

Now, please, on to the next binder.
I have this binder here, DVD513 DLL4 arm (antibody, V domains shown, DVD-Ig outer) VH: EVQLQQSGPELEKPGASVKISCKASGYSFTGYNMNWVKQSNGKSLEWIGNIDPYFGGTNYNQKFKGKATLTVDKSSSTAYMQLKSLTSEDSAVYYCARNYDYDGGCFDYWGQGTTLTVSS VL: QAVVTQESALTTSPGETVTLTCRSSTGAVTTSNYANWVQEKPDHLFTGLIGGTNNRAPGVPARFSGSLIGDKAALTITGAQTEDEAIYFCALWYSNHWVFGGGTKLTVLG , and I need its recorded pEC50.
9.18
